B1: Pistol ribozyme (parent)
chain: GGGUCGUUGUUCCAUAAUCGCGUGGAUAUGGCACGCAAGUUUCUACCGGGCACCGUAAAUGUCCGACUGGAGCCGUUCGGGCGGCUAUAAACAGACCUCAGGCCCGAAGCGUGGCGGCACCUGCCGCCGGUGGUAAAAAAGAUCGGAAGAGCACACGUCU

- Variants of: B1
- run_description: aptazyme ON/OFF ratio, guanine; higher = stronger switching; co-transcriptional cleavage with and without guanine
Attribute: aptazyme ON/OFF ratio
API doc: respond with a numeric literal and nothing else, no unit.

The following variants have reported results that may help.
Req: Dear colleague, I am looking for the recorded aptazyme ON/OFF ratio of the following variant: G9A U10C U11C C13A
Resp: 1.02

Req: Dear colleague, I am looking for the recorded aptazyme ON/OFF ratio of the following variant: U7A G9U U10C U11A C12U C13U
Resp: 1.22

Next:
Req: Dear colleague, I am looking for the recorded aptazyme ON/OFF ratio of the following variant: U8G G9C U10G C12G C13U
Resp: 1.17

Req: Dear colleague, I am looking for the recorded aptazyme ON/OFF ratio of the following variant: U7A U8C G9C U11A C13U
Resp: 1.05

Req: Dear colleague, I am looking for the recorded aptazyme ON/OFF ratio of the following variant: U8A G9U U10G C12U
Resp: 1.13

Req: Dear colleague, I am looking for the recorded aptazyme ON/OFF ratio of the following variant: U7G U8G U10A U11G C12U C13G
Resp: 1.36
